Tested on: EKVX NSCLC
Measurement description: NCI-60 one-dose screen, 48 h (100 = growth as untreated, 0 = no growth, -100 = all killed)
Test parameters: 10 µM
About 83,000 compounds went through this panel and 20% of them were active in at least one assay; those are over-represented in the sample as a whole.
Reported growth values follow for various compounds

Compound	Unit descriptor	growth
O=S(=O)(F)c1ccc(Cl)cc1	%	110
ClCc1ccc2ccccc2n1	%	93.2
CCOP(=O)(OCC)/C(C#N)=C/c1ccc(Br)cc1	%	97.6
O=C(CBr)Nc1ccccc1	%	111
O=[N+]([O-])c1ccc(N2CCOCC2)c2c1no[n+]2[O-]	%	46.5
COc1ccccc1[As]=[As]c1ccccc1OC (configuration not stated)	%	-67.7
COS(=O)(=O)c1ccccc1	%	112

* * *

Test system: SK-MEL-2 melanoma
Measurement description: NCI-60 one-dose screen, 48 h (100 = growth as untreated, 0 = no growth, -100 = all killed)
Test parameters: 10 µM
The panel holds about 83,000 compounds, 20% with a hit somewhere; the sample as a whole holds those more often.
Entries and their growth values follow.
Recorded metric: growth (%)

Compound	Observed value
O=[N+]([O-])c1ccc(N(CCO)CCO)c2c1no[n+]2[O-]	-16.3
CS(=N)(=O)CCC(N)C(=O)O (configuration not stated)	107
O=[P+](O)c1ccccc1	109
NC(=O)c1cc([N+](=O)[O-])c(Cl)c([N+](=O)[O-])c1	154
COc1ccccc1[As]=[As]c1ccccc1OC (configuration not stated)	-86.9
Cc1ccc(NC(=O)CBr)cc1	110
ClCc1ccc2ccccc2n1	99.4

* * *

Test system: SF-268 CNS
Measurement description: NCI-60 one-dose screen, 48 h
Test parameters: 10 µM
Procedure: Cells are grown in 96 well plates and exposed to the test compound for 48 hours. Compounds are tested at a single concentration, which is 10^-5 M for most compounds. The reported endpoint is percent growth (GI% or GIPRCNT), where numbers from 0 - 100% represent growth inhibition, and numbers from -100% - 0 represent cell death. For example, a value of 40 represents 60% growth inhibition. A value of 0 means no net growth occurred over the course of the experiment. […]
This is part of a sample that, as a whole, favours compounds with a hit. Of some 83,000 tested, about 20% had one in any assay. Active and inactive are the calls of the source. How the source made its calls: active means growth percent below 10; inactive means the rest.
Classes used: active, inactive

Molecule	Test target	Discrete label
O=S(=O)(F)c1ccc(Cl)cc1	SF-268 CNS	inactive
C[C@@H]1C[C@@H]([C@H](O)CC2CC(=O)NC(=O)C2)C(=O)[C@@H](C)C1	SF-268 CNS	active
COC12C(COC(N)=O)C3=C(C(=O)C(C)=C(N)C3=O)N1CC1C2N1C (stereo unspecified)	SF-268 CNS	inactive
Cc1cc(C(C)(C)c2ccc(O)c(C)c2)ccc1O	SF-268 CNS	inactive
NNc1ccccc1	SF-268 CNS	inactive
COc1cc(/C=C/[N+](=O)[O-])cc(Br)c1OC	SF-268 CNS	inactive
COS(=O)(=O)c1ccccc1	SF-268 CNS	inactive
CC1CCC2(OC1)OC1C(O)C3C4CCC5CC(OC6OC(CO)C(OC7OC(CO)C(O)C(OC8OCC(O)C(O)C8O)C7OC7OC(CO)C(O)C(OC8OC(CO)C(O)C(O)C8O)C7O)C(O)C6O)C(O)CC5(C)C4CCC3(C)C1C2C (stereo unspecified)	SF-268 CNS	active
CC(=O)[O][Hg][c]1c(C)c(C)cc(C)c1C	SF-268 CNS	active
COc1ccccc1/C=C/[N+](=O)[O-]	SF-268 CNS	inactive
C[CH2][Hg][S]c1ccccc1C(=O)O	SF-268 CNS	active

Where do these numbers come from? They come from PubChem BioAssay (NCI).
